Source of measurements: ChEMBL document CHEMBL3988442

# Percent Effect values compiled below
Biological target: Tyrosyl-tRNA synthetase, putative (Trypanosoma cruzi (strain CL Brener)) (UniProt Q4DSP6)
Sequence (Q4DSP6 as listed by the source): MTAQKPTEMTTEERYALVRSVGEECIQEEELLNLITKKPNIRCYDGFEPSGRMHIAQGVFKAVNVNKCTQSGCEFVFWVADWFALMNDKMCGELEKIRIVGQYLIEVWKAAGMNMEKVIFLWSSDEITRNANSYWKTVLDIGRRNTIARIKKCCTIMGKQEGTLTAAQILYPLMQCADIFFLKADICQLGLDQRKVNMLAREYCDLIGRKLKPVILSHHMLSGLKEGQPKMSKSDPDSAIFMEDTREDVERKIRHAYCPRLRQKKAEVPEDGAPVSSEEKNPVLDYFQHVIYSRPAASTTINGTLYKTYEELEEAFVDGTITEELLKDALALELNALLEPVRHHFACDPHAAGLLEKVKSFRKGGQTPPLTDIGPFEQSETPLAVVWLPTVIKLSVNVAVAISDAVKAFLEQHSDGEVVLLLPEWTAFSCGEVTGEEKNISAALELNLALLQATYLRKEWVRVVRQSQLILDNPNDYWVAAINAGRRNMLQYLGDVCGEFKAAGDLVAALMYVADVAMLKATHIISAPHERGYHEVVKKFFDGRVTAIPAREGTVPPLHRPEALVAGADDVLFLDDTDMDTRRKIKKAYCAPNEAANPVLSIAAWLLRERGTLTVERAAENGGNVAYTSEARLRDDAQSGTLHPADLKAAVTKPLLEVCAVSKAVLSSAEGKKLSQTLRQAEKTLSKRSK
Assay: Trypanosoma cruzi tyrosyl tRNA synthetase (TcYRS) SOP
Assay type: functional
Set-up: scale not given: direction of the effect not stated beside the values
Details: 30 µM

compound	Percent Effect [%]
CCN1CCCC(CNC(=O)C2(c3cccc(Cl)c3)CC2)C1 (stereo unspecified)	15.2
CCOc1ccc(CN(C)C(=O)NC(C)c2nncn2C)cc1 (stereo unspecified)	5.13
Cc1ccccc1-c1cncc(C2CCN(C)CC2)n1	3.9
O=C(c1cscn1)N1C[C@@H]2C[C@@H](c3nnc(C4CC4)o3)O[C@@H]2C1	6.41
CCn1cc(CN2CCCN(C(=O)c3ccn(C)c(=O)c3)CC2)cn1	23.5
Cc1ccc(CN2C[C@@H]3COC[C@H](NS(C)(=O)=O)[C@@H]3C2)o1	15
O=C(NCc1ccc(F)cc1)N1CCC(C2OCCO2)CC1	13
COC(=O)c1cc(C(=O)N2CCOCC2(C)C)n(-c2ccccc2)n1	17.1
c1nc2c(c(-c3ccsc3)n1)CCN(Cc1ccoc1)CC2	-3.66
CC(CNC(=O)c1cccnc1Oc1cccnc1)N(C)C (stereo unspecified)	17.1
COc1cccc(CNC(=O)CN2CCCCC2Cn2cccn2)c1 (stereo unspecified)	11.8

* * *

Species: Homo sapiens
Experiment: To identify inhibition of the IFN signalling (Jak-Stat) pathway via expression of an eGFP reporter gene under the control of an IFN-stimulated response element (ISRE) containing MxA promoter.
Format: functional
Set-up: scale not given: direction of the effect not stated beside the values
Settings: 30 µM

compound	Percent Effect [%]
Cc1ccc(C2CCCCCN2Cc2cn(C)nc2C)s1 (stereo unspecified)	-5.04
CSc1ncccc1C(=O)N1C[C@H]2CC[C@@H]1CN(c1ncccn1)C2	-0.196
COC(=O)CNC(=O)CSCc1nc(O)c2cc(C(C)C)sc2n1	-3.98
CCOCC(O)CN1CCN(C(=O)c2ccnc(N(C)C)c2)CC1 (stereo unspecified)	-4.49
COc1ccccc1OCc1cc(C(=O)N2CC=CC2C(C)C)n[nH]1 (stereo unspecified)	-13.9
O=C(C1=CC2(CCNCC2)c2ccccc21)N1CCCC1	-19.8
Cc1nnc(N2CC[C@H]3C[C@@H](C(=O)NC4CCCC4)O[C@H]3C2)s1	10.7
CCn1cc2c(n1)CN(C(=O)c1ccncc1)CC2COCC1CC1 (stereo unspecified)	-8.6
Cc1cccc(OCCNC(=O)CN2CCCC2Cn2cccn2)c1 (stereo unspecified)	-9.42
Cc1nc(COC[C@]23COC[C@H]2CN(Cc2ccoc2)C3)cs1	-33.4
O=C1CC(c2ccc(C(=O)O)cc2)c2ncn(-c3ccccc3)c2N1 (stereo unspecified)	2.29

* * *

Percent Effect reference
Target: Protein translocase subunit SecA (Escherichia coli (strain K12)) (UniProt P10408)
Sequence (P10408 whole entry): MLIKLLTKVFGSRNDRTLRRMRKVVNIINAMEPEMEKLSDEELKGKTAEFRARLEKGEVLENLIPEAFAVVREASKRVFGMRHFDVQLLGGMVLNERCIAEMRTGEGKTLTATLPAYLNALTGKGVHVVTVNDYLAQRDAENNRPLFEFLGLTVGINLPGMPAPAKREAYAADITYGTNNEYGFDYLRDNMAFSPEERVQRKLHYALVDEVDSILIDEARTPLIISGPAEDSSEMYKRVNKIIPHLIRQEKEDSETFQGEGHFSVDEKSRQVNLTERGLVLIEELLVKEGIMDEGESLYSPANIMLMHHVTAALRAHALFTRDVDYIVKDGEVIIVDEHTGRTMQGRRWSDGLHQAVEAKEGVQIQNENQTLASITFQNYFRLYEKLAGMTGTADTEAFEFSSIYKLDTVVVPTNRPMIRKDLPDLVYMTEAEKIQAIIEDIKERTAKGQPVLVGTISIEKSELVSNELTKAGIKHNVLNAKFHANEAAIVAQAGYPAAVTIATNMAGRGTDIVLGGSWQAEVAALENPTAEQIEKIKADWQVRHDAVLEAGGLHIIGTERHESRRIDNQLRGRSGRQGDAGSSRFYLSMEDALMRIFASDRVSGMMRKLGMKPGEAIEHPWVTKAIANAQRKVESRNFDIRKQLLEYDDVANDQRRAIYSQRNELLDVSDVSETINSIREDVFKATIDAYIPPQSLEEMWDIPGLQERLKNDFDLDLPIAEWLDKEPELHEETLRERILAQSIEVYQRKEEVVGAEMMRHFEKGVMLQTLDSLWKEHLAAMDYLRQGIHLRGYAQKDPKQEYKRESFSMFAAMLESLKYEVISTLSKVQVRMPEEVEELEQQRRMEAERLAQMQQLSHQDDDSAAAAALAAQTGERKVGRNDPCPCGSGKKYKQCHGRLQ
Assay: Assay to Identify E. coli SecA ATPase Inhibitors
Format: functional
Set-up: scale not given: direction of the effect not stated beside the values
Conditions: 30 µM
Results with a measured potency or affinity are listed apart.

compound	experimental-system	reading-unit	Percent Effect
CCCNC(=O)c1cnc(N(C)C)nc1COC	Protein translocase subunit SecA (Escherichia coli (strain K12)) (UniProt P10408)	%	-3.99
CCCC(NC(=O)c1cc(C)ccc1C)c1nnn[nH]1 (centres undefined)	Protein translocase subunit SecA (Escherichia coli (strain K12)) (UniProt P10408)	%	-4.53
Cn1ccnc1CN1CCC2(CC1)CN(CC1CC1)C(=O)CO2	Protein translocase subunit SecA (Escherichia coli (strain K12)) (UniProt P10408)	%	-1.66
Cc1cnn(CC2CCCN2C(=O)c2cnc3n[nH]c(C)c3c2)c1 (centres undefined)	Protein translocase subunit SecA (Escherichia coli (strain K12)) (UniProt P10408)	%	-6.55
CN1CC(=O)N(c2cccnc2)CC12CCN(C(=O)c1cccnc1)C2 (centres undefined)	Protein translocase subunit SecA (Escherichia coli (strain K12)) (UniProt P10408)	%	1.61
CCN(CC)C(=O)CN(C)C1CCc2ccccc21 (centres undefined)	Protein translocase subunit SecA (Escherichia coli (strain K12)) (UniProt P10408)	%	-0.321
Cc1nc(C)n(CC2CCCN2CC(=O)Nc2ccnn2C(C)C)n1 (centres undefined)	Protein translocase subunit SecA (Escherichia coli (strain K12)) (UniProt P10408)	%	3.15
CN1CCCC1CNC(=O)c1nnn(-c2ccc(F)cc2)c1C1CC1 (centres undefined)	Protein translocase subunit SecA (Escherichia coli (strain K12)) (UniProt P10408)	%	-5.49
Cc1nc(CN2C[C@@H]3CN(C(=O)c4cnccn4)C[C@@H]3C2)cs1	Protein translocase subunit SecA (Escherichia coli (strain K12)) (UniProt P10408)	%	-1.57
COc1ccc(CN(C)CC2CCCN2c2cccnn2)cc1F (centres undefined)	Protein translocase subunit SecA (Escherichia coli (strain K12)) (UniProt P10408)	%	1.17
CCn1cnnc1CNC(=O)N1CCC(Cc2cccnc2)CC1	Protein translocase subunit SecA (Escherichia coli (strain K12)) (UniProt P10408)	%	-2.15
Cc1nc2ccccc2nc1CN1CCCC1c1c(C)nn(C)c1C (centres undefined)	Protein translocase subunit SecA (Escherichia coli (strain K12)) (UniProt P10408)	%	-4.48
Cc1cn2c(n1)CCC(NC(=O)c1ccc(CS(C)(=O)=O)o1)C2 (centres undefined)	Protein translocase subunit SecA (Escherichia coli (strain K12)) (UniProt P10408)	%	-2.09
CCOC(=O)NC(C(=O)NCc1ccc(N2CCCCC2)nc1)C(C)C (centres undefined)	Protein translocase subunit SecA (Escherichia coli (strain K12)) (UniProt P10408)	%	-0.611
Cc1cc(CN2CCN(C(=O)c3sccc3C3CC3)CC2)on1	Protein translocase subunit SecA (Escherichia coli (strain K12)) (UniProt P10408)	%	-1.18
O=C(c1ccc[nH]1)N1CCCC2(CCN(c3ccsc3)C2=O)C1 (centres undefined)	Protein translocase subunit SecA (Escherichia coli (strain K12)) (UniProt P10408)	%	-0.928
CC(=O)Nc1ncc(S(=O)(=O)Nc2ccc(F)cc2)s1	Protein translocase subunit SecA (Escherichia coli (strain K12)) (UniProt P10408)	%	-4.49
Cc1nn(C)cc1CN1CCC(C2Nc3ccccc3S(=O)(=O)N2)CC1 (centres undefined)	Protein translocase subunit SecA (Escherichia coli (strain K12)) (UniProt P10408)	%	-3.36
CCCN(Cc1ccccc1)Cn1nc(C)c2c(C)onc2c1=O	Protein translocase subunit SecA (Escherichia coli (strain K12)) (UniProt P10408)	%	-7
NC(=O)NCC1CCCCN1C(=O)c1cccc(C(F)(F)F)c1 (centres undefined)	Protein translocase subunit SecA (Escherichia coli (strain K12)) (UniProt P10408)	%	-6.54
CN1CCC(C(=O)NCc2nncn2-c2ccccc2)CC1=O (centres undefined)	Protein translocase subunit SecA (Escherichia coli (strain K12)) (UniProt P10408)	%	-2.63
COc1ccc(CN2C[C@@H]3COC[C@]3(COc3cccnc3)C2)cc1	Protein translocase subunit SecA (Escherichia coli (strain K12)) (UniProt P10408)	%	-1.95
COC(=O)c1cccc(C(=O)N2CCN(c3ccccc3F)CC2)n1	Protein translocase subunit SecA (Escherichia coli (strain K12)) (UniProt P10408)	%	-5.05
Cc1nc(CN2CCC(C(=O)O)(n3ccc(-c4ccco4)n3)CC2)co1	Protein translocase subunit SecA (Escherichia coli (strain K12)) (UniProt P10408)	%	-6.11
